- System under test: L858R/T790M/C797S EGFR (Homo sapiens, UniProt P00533, C797S/L858R/T790M)
- Construct: expressed in transfected cells; host or cells: H1975 clone #25 (lentiviral over-expression, endogenous EGFR knocked out by sgRNA)
- Sequence (P00533 25-1210 T790M/C797S/L858R): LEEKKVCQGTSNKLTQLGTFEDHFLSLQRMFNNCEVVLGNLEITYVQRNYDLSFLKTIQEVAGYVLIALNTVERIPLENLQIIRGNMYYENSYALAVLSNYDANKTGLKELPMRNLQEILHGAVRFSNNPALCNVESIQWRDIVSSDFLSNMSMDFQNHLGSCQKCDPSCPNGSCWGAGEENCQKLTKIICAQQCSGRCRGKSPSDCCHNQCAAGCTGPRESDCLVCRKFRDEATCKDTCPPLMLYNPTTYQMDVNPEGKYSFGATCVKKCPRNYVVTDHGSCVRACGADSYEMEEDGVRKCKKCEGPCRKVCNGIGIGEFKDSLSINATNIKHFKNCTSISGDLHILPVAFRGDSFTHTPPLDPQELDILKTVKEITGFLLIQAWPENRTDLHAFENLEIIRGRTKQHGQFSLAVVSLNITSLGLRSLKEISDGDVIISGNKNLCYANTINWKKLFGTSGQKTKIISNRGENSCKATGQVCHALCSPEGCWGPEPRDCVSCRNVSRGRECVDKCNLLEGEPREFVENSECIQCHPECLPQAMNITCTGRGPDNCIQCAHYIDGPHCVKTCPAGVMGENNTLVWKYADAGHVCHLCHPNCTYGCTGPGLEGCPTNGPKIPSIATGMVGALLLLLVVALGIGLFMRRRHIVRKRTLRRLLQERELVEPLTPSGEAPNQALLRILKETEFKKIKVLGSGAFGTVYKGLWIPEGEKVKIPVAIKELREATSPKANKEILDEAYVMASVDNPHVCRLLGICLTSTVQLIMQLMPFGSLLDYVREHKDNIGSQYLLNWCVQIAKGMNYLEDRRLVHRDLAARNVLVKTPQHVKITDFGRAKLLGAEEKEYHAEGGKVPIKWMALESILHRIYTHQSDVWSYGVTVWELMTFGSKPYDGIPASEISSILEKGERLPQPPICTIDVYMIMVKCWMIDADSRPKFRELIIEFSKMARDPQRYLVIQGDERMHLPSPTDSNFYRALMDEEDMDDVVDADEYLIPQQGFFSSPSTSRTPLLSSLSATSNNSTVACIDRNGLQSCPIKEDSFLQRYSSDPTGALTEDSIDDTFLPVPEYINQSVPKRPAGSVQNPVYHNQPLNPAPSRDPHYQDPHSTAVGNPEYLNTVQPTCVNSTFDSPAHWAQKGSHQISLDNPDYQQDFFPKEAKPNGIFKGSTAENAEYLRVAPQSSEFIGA
- Assay method text: EGFR degradation HTRF assay in H1975-clone #25 (LTC) cells
- Format: cell-based
- Condition parameters: NCI-H1975, H1975 # 25-LTC (L858R/T790M/C797S), 16h treatment, maximum percentage of degradation
Assign Dmax to each entry below.
Give bare numbers, in %.

Worked cases, Dmax given:
| Compound | System under test | Dmax [%] |
| --- | --- | --- |
| Cc1cc2cc(n1)-c1cnn(C)c1OCCC[C@@H](C)CN1/C(=N/C2=O)Nc2ccc(N3CCN(CCNc4cc(F)c([C@H]5CCC(=O)NC5=O)c(F)c4)CC3)cc21 (single isomer, unassigned) | L858R/T790M/C797S EGFR (Homo sapiens, UniProt P00533, C797S/L858R/T790M) | 88 |
| Cc1cc2cc(n1)-c1cnn(C)c1OCC[C@H]1C[C@@H]1CN1/C(=N/C2=O)Nc2ccc(N3CCN(CC4CN(c5cc(F)c([C@H]6CCC(=O)NC6=O)c(F)c5)C4)CC3)cc21 | L858R/T790M/C797S EGFR (Homo sapiens, UniProt P00533, C797S/L858R/T790M) | 90.6 |

Report Dmax for every entry below.
1. Cc1cc2cc(n1)-c1cnn(C)c1OCCC[C@@H](C)CN1/C(=N/C2=O)Nc2ccc(N3CC[C@@H](N4CCN(c5cc(F)c([C@H]6CCC(=O)NC6=O)c(F)c5)CC4)CC3=O)cc21
2. Cc1cc2cc(n1)-c1cnn(C)c1OCCC[C@@H](C)CN1/C(=N/C2=O)Nc2ccc(C(=O)N[C@@H]3CCN(CCc4cc(F)c([C@H]5CCC(=O)NC5=O)c(F)c4)C[C@H]3F)cc21
3. Cc1cc2cc(n1)-c1cnn(C)c1OCCC[C@@H](C)CN1/C(=N/C2=O)Nc2cc(C)c(C(=O)N(C)C3CCN(CCc4cc(F)c([C@H]5CCC(=O)NC5=O)c(F)c4)CC3)cc21

92.3
92.5
88.4

###

Assign Dmax to each entry below.
- System under test: L858R/T790M/C797S EGFR (Homo sapiens, UniProt P00533, C797S/L858R/T790M)
- Construct: expressed in transfected cells; host or cells: H1975 clone #25 (lentiviral over-expression, endogenous EGFR knocked out by sgRNA)
- Assay method text: EGFR degradation HTRF assay in H1975-clone #25 (LTC) cells
- Assay type: cell-based
- Condition parameters: NCI-H1975, H1975 # 25-LTC (L858R/T790M/C797S), 16h treatment, maximum percentage of degradation
Numbers only, in %.

| Chem smiles | Dmax (%) |
| --- | --- |
| Cc1cc2cc(n1)-c1cnn(C)c1OCCC[C@@H](C)CN1/C(=N/C2=O)Nc2ccc(N3CCN([C@H]4C[C@@H](Nc5cc(F)c([C@H]6CCC(=O)NC6=O)c(F)c5)C4)CC3)cc21 | 84.5 |
| Cc1cc2cc(n1)-c1cnn(C)c1OCCC[C@@H](C)CN1/C(=N/C2=O)Nc2ccc(C(=O)N3CCC(N(C)CCc4cc(F)c([C@H]5CCC(=O)NC5=O)c(F)c4)CC3)cc21 | 86.9 |

Consider now this further compound.
Give Dmax for Cc1cc2cc(n1)-c1cnn(C)c1OCCC[C@@H](C)CN1/C(=N/C2=O)Nc2ccc(C(=O)N(C)C[C@H]3CCCN(CCc4cc(F)c([C@H]5CCC(=O)NC5=O)c(F)c4)C3)cc21 tested on L858R/T790M/C797S EGFR (Homo sapiens, UniProt P00533, C797S/L858R/T790M). 88
